Molecular target: human α1B-adrenoceptor (ADRA1B) expressed in HEK293 cells (Homo sapiens)
Construct: eGFP; host or cells: HEK293 (transient, Lipofectamine 2000)
Sequence (P35368 whole entry): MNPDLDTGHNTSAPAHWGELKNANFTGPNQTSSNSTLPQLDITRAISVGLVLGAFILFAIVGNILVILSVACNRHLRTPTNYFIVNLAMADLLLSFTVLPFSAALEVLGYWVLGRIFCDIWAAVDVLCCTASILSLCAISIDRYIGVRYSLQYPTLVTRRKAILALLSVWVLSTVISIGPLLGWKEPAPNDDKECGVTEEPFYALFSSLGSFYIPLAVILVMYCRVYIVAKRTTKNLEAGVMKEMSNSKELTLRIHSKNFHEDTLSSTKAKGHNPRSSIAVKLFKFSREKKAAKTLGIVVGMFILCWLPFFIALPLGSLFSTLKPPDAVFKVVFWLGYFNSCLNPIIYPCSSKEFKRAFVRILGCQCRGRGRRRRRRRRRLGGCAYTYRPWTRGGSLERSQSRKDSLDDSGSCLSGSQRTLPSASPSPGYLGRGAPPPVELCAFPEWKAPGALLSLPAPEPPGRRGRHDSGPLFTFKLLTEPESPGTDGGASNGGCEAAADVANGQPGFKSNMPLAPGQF
Assay: Dual-luciferase CRE reporter HTS assay, inhibition of PE-induced CRE activation (RIP)
Format: cell-based
Details: relative inhibitory potency = (RLU PE alone − RLU PE+antagonist)/RLU PE alone
Measurement Name: RIP Values (Mean ± S.E.M, n = 4) α1B

| Compound | Experimental Result |
| --- | --- |
| COc1cc2nc(N3CCN(C(=O)C4CCCO4)CC3)nc(N)c2cc1OC (stereo not shown) | 0.91 ± 0.02 |
| COc1cc2nc(N3CCN(C(=O)OCc4ccccc4)[C@H](C(=O)NC(C)(C)C)C3)nc(N)c2cc1OC | 0.86 ± 0.01 |
| COc1ccccc1N1CCN(CCCNc2c(C)c(=O)n(C)c(=O)n2C)CC1 | 0.63 ± 0.07 |
| COc1ccccc1N1CCN(CC(O)COc2cccc3ccccc23)CC1 (stereo not shown) [Naftopidil, naftopidil, reference compound] | 0.77 ± 0.02 |

# credit: paper PMC6270864
